Target: HA of ca A/Netherlands/219/03 (H7N7) virus (influenza A virus)
Assay: cell-based or functional assay
Assign labels as follows, please: TRUE for Neutralization IC50, H7-NLD03 below 1 mg/L; FALSE for Neutralization IC50, H7-NLD03 equal to or exceeding 1 mg/L.

{"Binder": "Antibody 14 (antibody, V domains shown) VH: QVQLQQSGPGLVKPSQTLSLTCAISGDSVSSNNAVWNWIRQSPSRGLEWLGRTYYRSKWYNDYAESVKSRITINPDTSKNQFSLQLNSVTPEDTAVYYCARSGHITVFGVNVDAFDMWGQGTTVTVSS VL: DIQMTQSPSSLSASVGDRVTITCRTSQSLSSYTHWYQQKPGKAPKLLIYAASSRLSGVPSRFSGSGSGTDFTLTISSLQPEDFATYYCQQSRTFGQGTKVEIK", "Discrete label": "FALSE"}
{"Binder": "Antibody 13 (antibody, V domains shown) VH: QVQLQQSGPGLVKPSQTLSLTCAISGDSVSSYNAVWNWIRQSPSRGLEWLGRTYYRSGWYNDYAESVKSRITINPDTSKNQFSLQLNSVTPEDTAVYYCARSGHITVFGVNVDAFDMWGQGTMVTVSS VL: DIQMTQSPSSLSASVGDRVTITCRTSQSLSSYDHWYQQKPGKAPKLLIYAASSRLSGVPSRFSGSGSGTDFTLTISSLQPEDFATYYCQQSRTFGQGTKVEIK", "Discrete label": "FALSE"}
{"Binder": "Antibody 15 (antibody, V domains shown) VH: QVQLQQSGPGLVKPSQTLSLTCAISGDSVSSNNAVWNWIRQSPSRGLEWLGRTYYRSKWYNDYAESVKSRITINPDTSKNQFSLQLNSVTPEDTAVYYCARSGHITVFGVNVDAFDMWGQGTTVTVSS VL: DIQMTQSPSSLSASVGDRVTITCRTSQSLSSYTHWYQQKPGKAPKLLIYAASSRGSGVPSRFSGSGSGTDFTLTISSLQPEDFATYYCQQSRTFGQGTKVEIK", "Discrete label": "FALSE"}
{"Binder": "Antibody 12 (antibody, V domains shown) VH: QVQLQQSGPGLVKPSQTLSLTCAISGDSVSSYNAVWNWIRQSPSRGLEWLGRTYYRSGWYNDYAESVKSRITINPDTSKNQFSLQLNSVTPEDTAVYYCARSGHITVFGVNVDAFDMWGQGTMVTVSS VL: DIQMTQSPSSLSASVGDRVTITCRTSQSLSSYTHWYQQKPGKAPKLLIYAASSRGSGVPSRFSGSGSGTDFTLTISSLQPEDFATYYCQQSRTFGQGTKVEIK", "Discrete label": "TRUE"}
{"Binder": "Antibody 11 (antibody, V domains shown) VH: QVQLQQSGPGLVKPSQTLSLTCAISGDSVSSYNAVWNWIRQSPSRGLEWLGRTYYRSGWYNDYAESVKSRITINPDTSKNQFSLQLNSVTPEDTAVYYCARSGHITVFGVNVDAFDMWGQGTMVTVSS VL: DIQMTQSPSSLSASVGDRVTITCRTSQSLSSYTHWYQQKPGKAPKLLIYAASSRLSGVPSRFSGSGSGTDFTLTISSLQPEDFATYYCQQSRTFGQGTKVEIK", "Discrete label": "TRUE"}
